This collection of values is drawn from ChEMBL document CHEMBL1157471.

Consider the following compounds and their measured pKi readings.
Target: D(2) dopamine receptor (Homo sapiens, UniProt P14416)
Sequence (P14416 whole entry): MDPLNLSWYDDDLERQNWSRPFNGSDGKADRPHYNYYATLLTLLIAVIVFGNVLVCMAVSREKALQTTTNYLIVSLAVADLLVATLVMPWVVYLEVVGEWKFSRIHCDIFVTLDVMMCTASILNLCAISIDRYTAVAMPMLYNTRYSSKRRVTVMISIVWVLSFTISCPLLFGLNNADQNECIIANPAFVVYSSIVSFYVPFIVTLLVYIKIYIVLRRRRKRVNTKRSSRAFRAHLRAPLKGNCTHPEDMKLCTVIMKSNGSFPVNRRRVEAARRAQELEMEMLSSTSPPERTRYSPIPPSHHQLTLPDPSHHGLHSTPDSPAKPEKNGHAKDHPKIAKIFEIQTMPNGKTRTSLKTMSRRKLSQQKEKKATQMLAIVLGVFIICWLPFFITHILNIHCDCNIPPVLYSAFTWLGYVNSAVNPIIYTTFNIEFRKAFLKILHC
Assay: Displacement […] from human cloned dopamine D2L receptor
pKi: −log10 of the molar value.
Quantity Name: pKi

* COc1ccc2c(c1)CCCN(C)CCc1ccccc1C2 | 7.61
* CCN1CCc2ccccc2Cc2ccc(O)cc2CC1 | 7.11
* CN1CCCc2ccccc2Cc2[nH]c3ccccc3c2CC1 | 7.87
* CN1CCc2ccccc2Cc2[nH]c3ccc(O)cc3c2CC1 | 7.36
* CN1CCc2ccccc2Cc2[nH]c3ccccc3c2CC1 | 7.38
* CN1CCCc2c([nH]c3ccccc23)Cc2ccccc2CC1 | 6.94
